- test_target: panel of 442 kinases (Mycobacterium tuberculosis, UniProt P9WI81)
- Construct: purchased KINOMEscan
- Sequence (P9WI81 whole entry): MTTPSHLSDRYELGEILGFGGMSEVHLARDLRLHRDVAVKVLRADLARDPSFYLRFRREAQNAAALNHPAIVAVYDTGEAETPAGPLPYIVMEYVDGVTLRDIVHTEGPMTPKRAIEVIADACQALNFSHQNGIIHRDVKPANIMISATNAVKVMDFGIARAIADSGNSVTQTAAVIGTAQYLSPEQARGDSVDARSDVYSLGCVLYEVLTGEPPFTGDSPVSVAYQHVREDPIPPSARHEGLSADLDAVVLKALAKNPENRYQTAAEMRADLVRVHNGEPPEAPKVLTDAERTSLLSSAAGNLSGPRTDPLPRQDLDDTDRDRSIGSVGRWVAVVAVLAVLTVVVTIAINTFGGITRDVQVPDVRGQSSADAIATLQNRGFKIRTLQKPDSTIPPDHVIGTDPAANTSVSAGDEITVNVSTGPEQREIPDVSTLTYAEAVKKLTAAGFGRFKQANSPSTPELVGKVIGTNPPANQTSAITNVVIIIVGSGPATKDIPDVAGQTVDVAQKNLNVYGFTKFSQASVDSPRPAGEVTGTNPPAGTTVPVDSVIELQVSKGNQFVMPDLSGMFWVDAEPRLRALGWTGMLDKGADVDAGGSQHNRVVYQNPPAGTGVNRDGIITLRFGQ
- Format: binding
- assay_setup: Compound Concentration 10 µM
Each entry below lists one item and its recorded KINOMEscan: PKNB(M.tuberculosis) value.
readout_label: KINOMEscan: PKNB(M.tuberculosis)

- COc1cc(C(=O)N2CCC(N3CCN(C)CC3)CC2)ccc1Nc1ncc2c(n1)N1CCc3cccc(c31)C(=O)N2C [Compound 24]: 98
- COc1cc(C(=O)N2CCC(N3CCN(C)CC3)CC2)ccc1Nc1ncc2c(n1)N(C1CCCC1)c1ccccc1C(=O)N2C [Compound 25]: 100
- COc1cc(C(=O)N2CCC(N3CCN(C)CC3)CC2)ccc1Nc1ncc2c(n1)N(C)c1ccccc1C(=O)N2C [15 (LRRK2-IN-1)]: 100
- CCOc1cc(C(=O)N2CCC(N3CCN(C)CC3)CC2)ccc1Nc1ncc2c(n1)N(C1CCCC1)c1ccccc1C(=O)N2C [Compound 26]: 96
